target: human SHMT2 (Homo sapiens, UniProt P34897); settings: read-out: SCHMT2 IC50; Table 2
Sequence (P34897 30-504 limits assumed): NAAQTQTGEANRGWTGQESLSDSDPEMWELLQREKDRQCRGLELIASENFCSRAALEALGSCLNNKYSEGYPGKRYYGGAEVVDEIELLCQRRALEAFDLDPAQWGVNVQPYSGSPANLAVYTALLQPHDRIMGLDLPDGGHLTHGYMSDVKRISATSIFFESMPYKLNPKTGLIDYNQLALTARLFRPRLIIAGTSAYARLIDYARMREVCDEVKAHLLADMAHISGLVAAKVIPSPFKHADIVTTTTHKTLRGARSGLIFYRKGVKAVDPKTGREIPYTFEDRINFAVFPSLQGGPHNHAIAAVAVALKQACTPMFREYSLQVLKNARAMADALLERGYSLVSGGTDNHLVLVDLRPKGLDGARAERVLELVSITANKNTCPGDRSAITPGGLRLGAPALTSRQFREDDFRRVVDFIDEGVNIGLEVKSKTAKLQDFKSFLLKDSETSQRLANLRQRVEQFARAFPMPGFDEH
endpoint.name: pIC50
In plain terms, pIC50 is the concentration in mol/L turned into minus its base-10 logarithm.

Task item: Which pIC50 is reported for this compound? Cc1n[nH]c2c1C(c1cc(C#CCCC(=O)O)cc(C(F)(F)F)c1)(C(C)C)C(C#N)=C(N)O2 (stereo not shown)
Reply: 9.77

---

Answer each item with its documented logP.
assay: LogP value; format: physicochemical; conditions: Table 2; head prints (μM)
Output spec: single numeric token, no unit.

Task item: Which logP is reported for this compound? Cc1n[nH]c2c1C(c1cc(C#CCCO)cc(C(F)(F)F)c1)(C(C)C)C(C#N)=C(N)O2 (centres unmarked) [Compound 2]
Reply: 3.46

Task item: Which logP is reported for this compound? Cc1n[nH]c2c1C(c1cc(C#CCCC(=O)NC(C)(C)C(=O)O)cc(C(F)(F)F)c1)(C(C)C)C(C#N)=C(N)O2 (centres unmarked) [Compound 72]
Reply: 3.38

Task item: Which logP is reported for this compound? Cc1n[nH]c2c1C(c1cc(C#CCCC(=O)N[C@H](CCC(=O)O)C(=O)O)cc(C(F)(F)F)c1)(C(C)C)C(C#N)=C(N)O2 (some centres unmarked) [Compound 70]
Reply: 2.49

Task item: Which logP is reported for this compound? Cc1n[nH]c2c1C(c1cc(C#CCCCO)cc(C(F)(F)F)c1)(C(C)C)C(C#N)=C(N)O2 (centres unmarked) [Compound 1]
Reply: 3.91

Task item: Which logP is reported for this compound? COC(=O)CCC#Cc1cc(C(F)(F)F)cc(C2(C(C)C)C(C#N)=C(N)Oc3[nH]nc(C)c32)c1 (centres unmarked) [Compound 73]
Reply: 4.17

---

Answer each item with its documented IC50.
biological target: human SHMT2 (Homo sapiens, UniProt P34897); conditions: read-out: SHMT2 IC50; Table 3

Task item: Which IC50 is reported for this molecule? COc1cccc(C2(C3CCC3)C(C#N)=C(N)Oc3[nH]nc(C)c32)c1 (centres unmarked) [HK-2]
Reply: > 5 µM

Task item: Which IC50 is reported for this molecule? Cc1n[nH]c2c1C(C)(c1cccc([N+](=O)[O-])c1)C(C#N)=C(N)O2 (centres unmarked) [GD-07]
Reply: > 5 µM

---

system: human colon carcinoma HCT-116 WT cells; assay: Cell growth assay (resazurin), HCT-116 wild-type; assay type: cell-based; conditions: Homo sapiens, HCT-116; Table 2
Answer each item with its documented log10 of IC50.
Heads up: the numbers are on a log10 scale; they represent IC50 in µM.

Task item: Which log10 of IC50 is reported for this compound? Cc1n[nH]c2c1C(c1cc(C#CCCC(=O)N[C@H](CCC(=O)O)C(=O)O)cc(C(F)(F)F)c1)(C(C)C)C(C#N)=C(N)O2 (stereo partly shown)
Reply: 2.00

Task item: Which log10 of IC50 is reported for this compound? Cc1n[nH]c2c1C(c1cc(C#CCCO)cc(C(F)(F)F)c1)(C(C)C)C(C#N)=C(N)O2 (stereo not shown)
Reply: 0.84

Task item: Which log10 of IC50 is reported for this compound? Cc1n[nH]c2c1C(c1cc(C#CCCCO)cc(C(F)(F)F)c1)(C(C)C)C(C#N)=C(N)O2 (stereo not drawn) [1 (enantiomeric ally active peak)]
Reply: 0.13

Task item: Which log10 of IC50 is reported for this compound? Cc1n[nH]c2c1C(c1cc(C#CCCC(=O)O)cc(C(F)(F)F)c1)(C(C)C)C(C#N)=C(N)O2 (stereo not shown)
Reply: 1.18

Task item: Which log10 of IC50 is reported for this compound? Cc1n[nH]c2c1C(c1cc(C#CCCCN)cc(C(F)(F)F)c1)(C(C)C)C(C#N)=C(N)O2 (stereo not shown)
Reply: 0.31

Task item: Which log10 of IC50 is reported for this compound? Cc1n[nH]c2c1C(c1cc(C#N)cc(C#CCCC(=O)O)c1)(C(C)C)C(C#N)=C(N)O2 (stereo not shown)
Reply: 2.00

Task item: Which log10 of IC50 is reported for this compound? Cc1n[nH]c2c1C(c1cc(C#CCCC(=O)N[C@@H](CCC(=O)O)C(=O)O)cc(C(F)(F)F)c1)(C(C)C)C(C#N)=C(N)O2 (stereo partly shown)
Reply: 2.00

Values were extracted from patent US10077273B2.
